# SUBJECT OF TEST: CaCYP51 (Candida albicans)
# Construct: made in house; host or cells: Escherichia coli
# TEST SUMMARY: biochemical
# Assay type: binding
ENDPOINT NAME: Kd (µM)
Answers are plain numbers, in µM.

Lookup: Please report the recorded Kd for OC(Cn1cncn1)(Cn1cncn1)c1ccc(F)cc1F [fluconazole, reference compound] .
Found: 0.041

* * *

# SUBJECT OF TEST: CaCYP51 (Candida albicans, UniProt P10613)
# Construct: made in house; host or cells: Escherichia coli
# Sequence (P10613 whole entry): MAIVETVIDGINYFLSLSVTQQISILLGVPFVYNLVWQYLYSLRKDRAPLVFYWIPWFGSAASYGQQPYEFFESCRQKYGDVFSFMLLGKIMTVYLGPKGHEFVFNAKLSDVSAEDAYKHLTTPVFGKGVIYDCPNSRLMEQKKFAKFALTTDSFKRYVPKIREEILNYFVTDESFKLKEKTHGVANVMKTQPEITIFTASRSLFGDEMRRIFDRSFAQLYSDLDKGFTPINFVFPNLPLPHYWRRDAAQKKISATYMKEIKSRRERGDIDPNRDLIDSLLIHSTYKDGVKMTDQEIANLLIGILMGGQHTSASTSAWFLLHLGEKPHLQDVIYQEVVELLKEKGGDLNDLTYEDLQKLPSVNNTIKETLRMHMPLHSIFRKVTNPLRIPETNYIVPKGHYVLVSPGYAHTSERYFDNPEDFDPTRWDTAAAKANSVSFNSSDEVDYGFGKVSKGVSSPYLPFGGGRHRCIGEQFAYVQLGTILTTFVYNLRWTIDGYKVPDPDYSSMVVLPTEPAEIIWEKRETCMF
# TEST SUMMARY: biochemical
# Experimental: […]. […] […]. CYP51 reconstitution assays. IC50 values were determined for individual azole compounds18, 30 using lanosterol as substrate. Azoles were introduced using 2.5 μL of stock solutions in DMSO. CaCYP51 assays contained 1 μM CaCYP51 and 2 μM Homo sapiens cytochrome P450 reductase (HsCPR – UniProtKB accession number P16435) and were incubated for 20 min at 37 °C. HsCYP51 assays contained 0.25 μM Δ60HsCYP51 and 1 μM HsCPR and were incubated for 10 min at 37 °C. […]
ENDPOINT NAME: Ki (nM)
Answers are plain numbers, in nM.

Lookup: I'm curious: which Ki was measured for OC(Cn1cncn1)(Cn1cncn1)c1ccc(F)cc1F [fluconazole, reference compound] tested on CaCYP51 (Candida albicans, UniProt P10613)?
Found: 30

* * *

# SUBJECT OF TEST: CaCYP51 (Candida albicans)
# Construct: made in house; host or cells: Escherichia coli
# TEST SUMMARY: biochemical
# Assay type: binding
# MEASUREMENT CONDITIONS: 3 μM native CaCYP51, mean of three replicates ± SD; read-out: K d CaCYP51
Would you kindly list pKd for each of these molecules?
Answers are plain numbers, as −log10 of the molar value.

Before answering, review these 4 worked examples.
O=C(NCc1ccc(Cl)cc1)C(Cn1ccnc1)c1ccc(Cl)cc1 (centres unmarked) [Compound 5 d]: 7.77
CC[C@@H]([C@H](C)O)n1ncn(-c2ccc(N3CCN(c4ccc(OC[C@@H]5CO[C@@](Cn6cncn6)(c6ccc(F)cc6F)C5)cc4)CC3)cc2)c1=O [posaconazole, reference compound]: 7.37
O=C(NCc1ccc(Cl)cc1Cl)C(Cn1ccnc1)c1ccccc1 (centres unmarked) [Compound 5 e]: 7.08
O=C(NCc1ccc(Cl)cc1)C(Cn1cncn1)c1ccccc1 (centres unmarked) [Compound 5 k]: 6.78

Lookup: Which pKd reading was recorded for the molecule O=C(NCc1ccc(NS(=O)(=O)c2ccc(Cl)cc2)cc1)C(Cn1cncn1)c1ccccc1 (centres unmarked) [Compound 12 c] ?
Found: 7.37

* * *

# SUBJECT OF TEST: Δ60HsCYP51 (Homo sapiens, UniProt Q16850)
# Sequence (Q16850 61-509, stated change not applied): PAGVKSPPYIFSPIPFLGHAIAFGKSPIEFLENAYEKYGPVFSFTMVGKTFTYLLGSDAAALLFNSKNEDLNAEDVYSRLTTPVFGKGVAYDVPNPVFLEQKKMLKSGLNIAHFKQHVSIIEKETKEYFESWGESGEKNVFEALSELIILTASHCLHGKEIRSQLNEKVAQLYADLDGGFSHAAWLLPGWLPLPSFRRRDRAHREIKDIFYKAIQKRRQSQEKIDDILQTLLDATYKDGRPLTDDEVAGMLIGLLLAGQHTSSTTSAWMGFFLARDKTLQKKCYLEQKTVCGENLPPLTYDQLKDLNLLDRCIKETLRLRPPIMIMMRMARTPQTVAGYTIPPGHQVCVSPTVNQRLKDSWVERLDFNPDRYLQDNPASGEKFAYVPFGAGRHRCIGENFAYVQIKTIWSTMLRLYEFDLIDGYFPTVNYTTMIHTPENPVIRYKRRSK
# Sequence (P16435 2-677, stated change not applied, further chain): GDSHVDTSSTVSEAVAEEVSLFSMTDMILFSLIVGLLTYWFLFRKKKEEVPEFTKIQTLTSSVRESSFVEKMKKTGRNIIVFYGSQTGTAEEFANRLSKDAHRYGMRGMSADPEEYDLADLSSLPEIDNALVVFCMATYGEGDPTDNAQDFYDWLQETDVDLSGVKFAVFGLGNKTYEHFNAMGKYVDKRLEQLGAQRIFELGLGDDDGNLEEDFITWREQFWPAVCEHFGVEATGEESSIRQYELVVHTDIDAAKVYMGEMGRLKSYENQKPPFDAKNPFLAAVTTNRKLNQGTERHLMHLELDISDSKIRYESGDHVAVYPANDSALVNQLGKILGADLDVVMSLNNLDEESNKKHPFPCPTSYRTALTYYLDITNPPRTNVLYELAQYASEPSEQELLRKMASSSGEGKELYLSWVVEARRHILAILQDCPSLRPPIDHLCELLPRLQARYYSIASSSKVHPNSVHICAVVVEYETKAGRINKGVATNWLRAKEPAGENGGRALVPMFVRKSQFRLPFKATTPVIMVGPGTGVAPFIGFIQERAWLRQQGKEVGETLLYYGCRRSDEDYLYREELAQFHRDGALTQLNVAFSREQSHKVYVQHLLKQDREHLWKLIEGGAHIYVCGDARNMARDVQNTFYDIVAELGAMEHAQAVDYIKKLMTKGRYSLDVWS
# TEST SUMMARY: Azole ligand binding titration (type II difference spectra, Kd), Δ60HsCYP51
ENDPOINT NAME: Kd (nM)
Numbers only, in nM.

Lookup: Query (compound): CC[C@@H]([C@H](C)O)n1ncn(-c2ccc(N3CCN(c4ccc(OC[C@@H]5CO[C@@](Cn6cncn6)(c6ccc(F)cc6F)C5)cc4)CC3)cc2)c1=O [posaconazole, reference compound] ; field requested: Kd
Found: 204

* * *

# SUBJECT OF TEST: Δ60HsCYP51 (Homo sapiens, UniProt Q16850)
# TEST SUMMARY: CYP51 reconstitution assay (IC50), Δ60HsCYP51
# Assay type: biochemical
ENDPOINT NAME: IC50

C[C@@H](c1ncncc1F)[C@](O)(Cn1cncn1)c1ccc(F)cc1F [voriconazole, reference compound]: 78 µM

Lab note: next compound to report on.
Lookup: Quick check: IC50 on Δ60HsCYP51 (Homo sapiens, UniProt Q16850), item CC[C@@H]([C@H](C)O)n1ncn(-c2ccc(N3CCN(c4ccc(OC[C@@H]5CO[C@@](Cn6cncn6)(c6ccc(F)cc6F)C5)cc4)CC3)cc2)c1=O [posaconazole, reference compound] ?
Found: 123 µM

* * *

# System: C. albicans SC5314
# TEST SUMMARY: MIC, CLSI M27-S4 broth dilution, strain SC5314
# Assay type: cell-based, Candida albicans
# MEASUREMENT CONDITIONS: 48 hours, 80 % reduction in turbidity
# Experimental: The susceptibilities of the SC5314 and CA14C. albicans (azole sensitive) strains to all novel azole derivatives (5, 7 and 12) were determined (Table 3) using the standardized CLSI M27‐S4 broth dilution method.28 Susceptibility testing of C. albicans strains. […] Stock solutions of each agent were prepared in DMSO. Further dilutions were made in RPMI‐1640, and the final concentration of DMSO was 1 % (v/v). The final testing concentrations for all compounds ranged from 0.03–16 μg mL^−1.
ENDPOINT NAME: MIC SC5314 (µg/mL)
Give bare numbers, in µg/mL.

Solved entries (count: 2):
O=C(NCc1ccc(Cl)cc1)C(Cn1ccnc1)c1ccccc1 (stereo not shown): 8
O=C(NCc1ccc(NS(=O)(=O)c2ccc(F)cc2)cc1)C(Cn1cncn1)c1ccccc1 (stereo not shown): 4

Now turn to the next compound.
Lookup: Under C. albicans SC5314: MIC SC5314 value of O=C(NCc1ccc(Cl)cc1)C(Cn1cncn1)c1ccccc1 (stereo not shown) ?
Found: 8

* * *

# SUBJECT OF TEST: CaCYP51 (Candida albicans)
# Construct: made in house; host or cells: Escherichia coli
# TEST SUMMARY: biochemical
# MEASUREMENT CONDITIONS: 1 μM CaCYP51, lanosterol as substrate, curve-fitted; read-out: CaCYP51 IC50
ENDPOINT NAME: pIC50
Numbers only, as −log10 of the molar value.

O=C(NCc1ccc(F)cc1)C(Cn1ccnc1)c1ccccc1 (stereo not drawn): 5.85
COc1ccc(S(=O)(=O)Nc2ccc(CNC(=O)C(Cn3cncn3)c3ccccc3)cc2)cc1 (stereo not drawn): 6.10
O=C(NCc1ccc(NS(=O)(=O)c2ccc(F)cc2)cc1)C(Cn1cncn1)c1ccccc1 (stereo not drawn): 6.70
Cc1ccc(CNC(=O)C(Cn2ccnc2)c2ccccc2)cc1 (stereo not drawn): 5.61

Lab note: each molecule below needs its pIC50 filled in.
1. Nc1ccc(CNC(=O)C(Cn2cncn2)c2ccccc2)cc1.O=C(O)C(F)(F)F (stereo not drawn)
2. O=C(NCc1ccc(Cl)cc1Cl)C(Cn1ccnc1)c1ccc(Cl)cc1 (stereo not drawn)

Found:
5.71
6.34

* * *

# SUBJECT OF TEST: CaCYP51 (Candida albicans)
# Construct: made in house; host or cells: Escherichia coli
# TEST SUMMARY: biochemical
# Assay type: binding
# MEASUREMENT CONDITIONS: 3 μM native CaCYP51, mean of three replicates ± SD; read-out: K d CaCYP51
Kd strictly under 80 nM means True; at 80 nM or over means False.

Below, 5 compounds whose answers are already recorded.
O=C(NCc1ccc(Cl)cc1Cl)C(Cn1ccnc1)c1ccc(Cl)cc1 (stereo not drawn): True
COc1ccc(S(=O)(=O)Nc2ccc(CNC(=O)C(Cn3cncn3)c3ccccc3)cc2)cc1 (stereo not drawn): False
COc1ccc(CNC(=O)C(Cn2ccnc2)c2ccccc2)cc1 (stereo not drawn): True
O=C(NCc1ccc(C(F)(F)F)cc1)C(Cn1ccnc1)c1ccccc1 (stereo not drawn): False
Cc1ccc(CNC(=O)C(Cn2ccnc2)c2ccccc2)cc1 (stereo not drawn): False

Lookup: hey, is Kd for O=C(NCc1ccc(F)cc1)C(Cn1ccnc1)c1ccccc1 (stereo not drawn) lower than 80 nM or not?
Found: False

Lookup: Bench note: check whether O=C(NCc1ccc(NS(=O)(=O)c2ccc(F)cc2)cc1)C(Cn1cncn1)c1ccccc1 (stereo not drawn) shows Kd below 80 nM
Found: True

Lookup: # TODO verify Kd < 80 nM strictly for this compound: O=C(NCc1ccc(Cl)cc1)C(Cn1ccnc1)c1ccccc1 (stereo not drawn)
Found: True

Lookup: In the record for O=C(NCc1ccc(NS(=O)(=O)c2ccccc2)cc1)C(Cn1cncn1)c1ccccc1 (stereo not drawn) , is Kd less than 80 nM?
Found: False

* * *

# System: C. albicans SC5314
# TEST SUMMARY: MIC, CLSI M27-S4 broth dilution, strain SC5314
# Format: cell-based, Candida albicans
# MEASUREMENT CONDITIONS: Candida albicans, SC5314; 48 hours, value in brackets
# Protocol: The susceptibilities of the SC5314 and CA14C. albicans (azole sensitive) strains to all novel azole derivatives (5, 7 and 12) were determined (Table 3) using the standardized CLSI M27‐S4 broth dilution method.28 Susceptibility testing of C. albicans strains. […] Stock solutions of each agent were prepared in DMSO. Further dilutions were made in RPMI‐1640, and the final concentration of DMSO was 1 % (v/v). The final testing concentrations for all compounds ranged from 0.03–16 μg mL^−1.
ENDPOINT NAME: MIC (µM)
One number for each entry, in µM.

Example results:
OC(Cn1cncn1)(Cn1cncn1)c1ccc(F)cc1F [fluconazole, reference compound]: 0.41
COc1ccc(S(=O)(=O)Nc2ccc(CNC(=O)C(Cn3cncn3)c3ccccc3)cc2)cc1 (stereo not drawn) [Compound 12 d]: 16.3

Hello, I would appreciate it if you could give MIC for each entry below.
1. O=C(NCc1ccc(C(F)(F)F)cc1)C(Cn1ccnc1)c1ccccc1 (stereo not drawn) [Compound 5 h]
2. O=C(NCc1ccc(Cl)cc1)C(Cn1ccnc1)c1ccc(Cl)cc1 (stereo not drawn) [Compound 5 d]
3. O=C(NCc1ccc(F)cc1)C(Cn1ccnc1)c1ccccc1 (stereo not drawn) [Compound 5 b]
4. Cc1ccc(CNC(=O)C(Cn2ccnc2)c2ccccc2)cc1 (stereo not drawn) [Compound 5 g]
5. COc1ccc(CNC(=O)C(Cn2ccnc2)c2ccccc2)cc1 (stereo not drawn) [Compound 5 i]
6. O=C(NCc1ccc(Cl)cc1Cl)C(Cn1ccnc1)c1ccccc1 (stereo not drawn) [Compound 5 e]
7. O=C(NCc1ccc(NS(=O)(=O)c2ccccc2)cc1)C(Cn1cncn1)c1ccccc1 (stereo not drawn) [Compound 12 a]
8. O=C(NCc1ccc(NS(=O)(=O)c2ccc(Cl)cc2)cc1)C(Cn1cncn1)c1ccccc1 (stereo not drawn) [Compound 12 c]

Found:
10.7
0.33
24.7
25.1
23.9
2.67
8.67
2.02

Just for reference, paper PMC7496091 is where these values come from.
